- test_system: PTP-1B (Homo sapiens)
- Construct: PTP-1B (purified, 1 mg/mL) as a 1:250 dilution
- assay_details: pNPP tyrosine phosphatase inhibition assay, PTP-1B
- Format: biochemical
- experimental_context: pNPP assay, PTP-1B; read-out: Activity Class (IC50 ranges)
pIC50: −log10 of the molar value.

- compound: "COc1ccccc1S(=O)(=O)N(Cc1ccc(-c2nn[nH]n2)cc1)Cc1ccc(-c2nn[nH]n2)cc1 [Compound 110]"
  test_system: "PTP-1B (Homo sapiens)"
  pIC50: "< 4.60"
- compound: "COc1ccccc1S(=O)(=O)N(Cc1ccc(C(F)(F)P(=O)(O)O)cc1)Cc1ccc(C(F)(F)P(=O)(O)O)cc1 [Compound 85]"
  test_system: "PTP-1B (Homo sapiens)"
  pIC50: "6.30 to 6.60"
- compound: "COc1ccccc1S(=O)(=O)N(Cc1ccc(C#N)cc1)Cc1ccc(C=CC(=O)O)c(Br)c1 [Compound 120]"
  test_system: "PTP-1B (Homo sapiens)"
  pIC50: "< 4.60"
- compound: "O=P(O)(O)C(F)(F)c1ccc(CN(Cc2ccc(Cl)c(Cl)c2)S(=O)(=O)c2ccccc2OC(F)(F)F)cc1Br [Compound 98]"
  test_system: "PTP-1B (Homo sapiens)"
  pIC50: "6.30 to 6.60"
- compound: "COc1ccccc1S(=O)(=O)N(Cc1ccc(C(F)(F)P(=O)(O)O)c(Cl)c1)Cc1ccccc1OCCCC(C)C [Compound 215]"
  test_system: "PTP-1B (Homo sapiens)"
  pIC50: "6.30 to 6.60"
- compound: "NC(=O)c1ccccc1S(=O)(=O)N(Cc1ccccc1)Cc1ccc(C(F)(F)P(=O)(O)O)c(Cl)c1 [Compound 192]"
  test_system: "PTP-1B (Homo sapiens)"
  pIC50: "6.30 to 6.60"
- compound: "COc1ccccc1S(=O)(=O)N(Cc1ccc(NC(=O)C(=O)O)cc1)Cc1ccc(NC(=O)C(=O)O)cc1 [Compound 57]"
  test_system: "PTP-1B (Homo sapiens)"
  pIC50: "< 4.60"
- compound: "O=P(O)(O)C(F)(F)c1ccc(CN(Cc2ccc(C(F)(F)P(=O)(O)O)cc2)S(=O)(=O)c2cccc(Cl)c2Cl)cc1 [Compound 91]"
  test_system: "PTP-1B (Homo sapiens)"
  pIC50: "4.60 to 5.60"
- compound: "O=C(O)c1ccc(CN(Cc2ccc(C(=O)O)cc2)S(=O)(=O)c2ccccc2)cc1 [Compound 78]"
  test_system: "PTP-1B (Homo sapiens)"
  pIC50: "< 4.60"
- compound: "COc1ccccc1S(=O)(=O)N(Cc1ccc(-c2nnn[nH]2)cc1)Cc1ccc(S(C)(=O)=O)cc1 [Compound 115]"
  test_system: "PTP-1B (Homo sapiens)"
  pIC50: "< 4.60"
- compound: "COc1ccccc1S(=O)(=O)N(Cc1ccc(-c2ccc(S(C)(=O)=O)cc2)c(C)c1)Cc1ccc(C(F)(F)P(=O)(O)O)c(Cl)c1 [Compound 151]"
  test_system: "PTP-1B (Homo sapiens)"
  pIC50: "6.30 to 6.60"
- compound: "O=P(O)(O)C(F)(F)c1ccc(CN(Cc2ccc(C(F)(F)P(=O)(O)O)cc2)S(=O)(=O)c2ccc(Oc3ccccc3)cc2)cc1 [Compound 70]"
  test_system: "PTP-1B (Homo sapiens)"
  pIC50: "6.30 to 6.60"
- compound: "O=P(O)(O)C(F)(F)c1ccc(CN(Cc2ccc(-c3ccccc3)cc2)Cc2ccc(C(F)(F)P(=O)(O)O)cc2)cc1 [Compound 20]"
  test_system: "PTP-1B (Homo sapiens)"
  pIC50: "4.60 to 5.60"
- compound: "COc1ccccc1S(=O)(=O)N(Cc1ccc(C(F)(F)P(=O)(O)O)c(Br)c1)c1ccc(S(C)(=O)=O)cc1 [Compound 114]"
  test_system: "PTP-1B (Homo sapiens)"
  pIC50: "6.60 to 7.00"
- compound: "O=P(O)(O)C(F)(F)c1ccc(CN(Cc2ccc(-c3cccc(-c4nn[nH]n4)c3)cc2)S(=O)(=O)c2ccc(F)cc2Cl)cc1Cl [Compound 169]"
  test_system: "PTP-1B (Homo sapiens)"
  pIC50: "> 7.00"
- compound: "COc1ccccc1S(=O)(=O)N(Cc1ccc(N(CC(=O)O)C(=O)C(=O)O)cc1)Cc1ccc(S(C)(=O)=O)cc1 [Compound 136]"
  test_system: "PTP-1B (Homo sapiens)"
  pIC50: "< 4.60"
- compound: "COc1ccccc1S(=O)(=O)N(Cc1ccc(C(F)(F)P(=O)(O)O)c(Cl)c1)Cc1ccccc1Br [Compound 178]"
  test_system: "PTP-1B (Homo sapiens)"
  pIC50: "6.60 to 7.00"
- compound: "COc1ccccc1S(=O)(=O)N(Cc1ccc(-c2cccc(C#N)c2)cc1)Cc1ccc(C(F)(F)P(=O)(O)OCOC(=O)C(C)(C)C)c(Cl)c1 [Compound 227]"
  test_system: "PTP-1B (Homo sapiens)"
  pIC50: "< 4.60"
- compound: "COc1ccccc1S(=O)(=O)N(Cc1ccc(C(=NO)C(=O)O)cc1)Cc1ccc(S(C)(=O)=O)cc1 [Compound 126]"
  test_system: "PTP-1B (Homo sapiens)"
  pIC50: "< 4.60"
- compound: "CS(=O)(=O)c1ccc(CN(Cc2ccc(C(F)(F)P(=O)(O)O)c(Br)c2)S(=O)(=O)c2ccccc2Cl)cc1 [Compound 102]"
  test_system: "PTP-1B (Homo sapiens)"
  pIC50: "6.60 to 7.00"
- compound: "COc1ccccc1S(=O)(=O)N(Cc1ccc(S(C)(=O)=O)cc1)Cc1ccc(C(F)(F)P(=O)(O)O)c(Cl)c1 [Compound 137]"
  test_system: "PTP-1B (Homo sapiens)"
  pIC50: "6.30 to 6.60"
- compound: "CCNc1ccc(S(=O)(=O)C(F)(F)F)cc1NC(=O)C1CCN(S(=O)(=O)c2cccs2)CC1 [Compound 88]"
  test_system: "PTP-1B (Homo sapiens)"
  pIC50: "< 4.60"
- compound: "COc1ccccc1S(=O)(=O)N(Cc1ccc(OCc2nnn[nH]2)cc1)Cc1ccc(OCc2nnn[nH]2)cc1 [Compound 138]"
  test_system: "PTP-1B (Homo sapiens)"
  pIC50: "< 4.60"
- compound: "COc1ccccc1S(=O)(=O)N(Cc1ccc(C(F)(F)P(=O)(O)O)c(Cl)c1)Cc1ccccc1-c1cccc(C(N)=O)c1 [Compound 186]"
  test_system: "PTP-1B (Homo sapiens)"
  pIC50: "6.60 to 7.00"
- compound: "COc1ccccc1S(=O)(=O)N(Cc1ccc(C(=O)O)cc1)Cc1ccc(C(F)(F)P(=O)(O)O)c(Cl)c1 [Compound 233]"
  test_system: "PTP-1B (Homo sapiens)"
  pIC50: "6.60 to 7.00"

###

Overview of recorded IC50 for various compounds
- test_system: PTP-1B (Homo sapiens, UniProt P18031)
- Construct: PTP-1B (purified, 1 mg/mL) as a 1:250 dilution
- assay_details: pNPP tyrosine phosphatase inhibition assay, PTP-1B
- Assay type: biochemical
- experimental_context: pNPP assay, PTP-1B; read-out: Activity Class (IC50 ranges)

- compound_smiles: "COc1ccccc1S(=O)(=O)N(Cc1ccc(C(F)(F)P(=O)(O)O)c(Cl)c1)CC12CC3CC(CC(C3)C1)C2"
  IC50: "250 to 499 nM"
- compound_smiles: "O=P(O)(O)C(F)(F)c1ccc(CN(Cc2ccc(C(F)(F)P(=O)(O)O)cc2)S(=O)(=O)c2ccccc2Cl)cc1"
  IC50: "100 to 249 nM"
- compound_smiles: "COC(=O)c1cccc(-c2ccc(CN(Cc3ccc(C(F)(F)P(=O)(O)O)c(Cl)c3)S(=O)(=O)c3ccccc3OC)cc2)c1"
  IC50: "250 to 499 nM"

###

- test_system: PTP-1B (Homo sapiens)
- Construct: PTP-1B (purified, 1 mg/mL) as a 1:250 dilution
- Sequence (P18031 1-321 limits assumed): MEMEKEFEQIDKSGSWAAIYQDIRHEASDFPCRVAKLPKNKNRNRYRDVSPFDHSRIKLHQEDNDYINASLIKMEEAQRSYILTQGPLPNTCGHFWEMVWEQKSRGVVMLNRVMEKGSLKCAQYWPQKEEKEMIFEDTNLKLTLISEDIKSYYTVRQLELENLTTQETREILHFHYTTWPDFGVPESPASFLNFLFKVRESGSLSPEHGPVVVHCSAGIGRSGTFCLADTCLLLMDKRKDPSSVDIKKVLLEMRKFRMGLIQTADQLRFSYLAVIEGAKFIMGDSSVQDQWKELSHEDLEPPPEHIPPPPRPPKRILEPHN
- assay_details: pNPP tyrosine phosphatase inhibition assay, PTP-1B
- Type: biochemical
- experimental_context: pNPP assay, PTP-1B; read-out: Activity Class (IC50 ranges)
pIC50: −log10 of the molar value.

- compound_smiles: "O=C(O)c1ccc(CN(Cc2ccc(C(F)(F)P(=O)(O)O)c(Cl)c2)S(=O)(=O)c2ccccc2)cc1"
  pIC50: "6.30 to 6.60"
- compound_smiles: "COc1ccccc1S(=O)(=O)N(Cc1ccc(Cl)c(Cl)c1)Cc1ccc(C(F)(F)P(=O)(O)O)c(Cl)c1"
  pIC50: "6.30 to 6.60"
- compound_smiles: "COc1ccccc1S(=O)(=O)N(Cc1ccc(C(F)(F)P(=O)(O)O)c(Cl)c1)Cc1ccccc1Oc1ccccc1"
  pIC50: "6.60 to 7.00"
- compound_smiles: "COc1ccccc1S(=O)(=O)N(Cc1ccc(-c2ccc(O)c(C(=O)O)c2)cc1)Cc1ccc(C(F)(F)P(=O)(O)O)c(Cl)c1"
  pIC50: "> 7.00"
